assayed system: Human Full Length PARG (Homo sapiens (Human))
Sequence (Q86W56 whole entry): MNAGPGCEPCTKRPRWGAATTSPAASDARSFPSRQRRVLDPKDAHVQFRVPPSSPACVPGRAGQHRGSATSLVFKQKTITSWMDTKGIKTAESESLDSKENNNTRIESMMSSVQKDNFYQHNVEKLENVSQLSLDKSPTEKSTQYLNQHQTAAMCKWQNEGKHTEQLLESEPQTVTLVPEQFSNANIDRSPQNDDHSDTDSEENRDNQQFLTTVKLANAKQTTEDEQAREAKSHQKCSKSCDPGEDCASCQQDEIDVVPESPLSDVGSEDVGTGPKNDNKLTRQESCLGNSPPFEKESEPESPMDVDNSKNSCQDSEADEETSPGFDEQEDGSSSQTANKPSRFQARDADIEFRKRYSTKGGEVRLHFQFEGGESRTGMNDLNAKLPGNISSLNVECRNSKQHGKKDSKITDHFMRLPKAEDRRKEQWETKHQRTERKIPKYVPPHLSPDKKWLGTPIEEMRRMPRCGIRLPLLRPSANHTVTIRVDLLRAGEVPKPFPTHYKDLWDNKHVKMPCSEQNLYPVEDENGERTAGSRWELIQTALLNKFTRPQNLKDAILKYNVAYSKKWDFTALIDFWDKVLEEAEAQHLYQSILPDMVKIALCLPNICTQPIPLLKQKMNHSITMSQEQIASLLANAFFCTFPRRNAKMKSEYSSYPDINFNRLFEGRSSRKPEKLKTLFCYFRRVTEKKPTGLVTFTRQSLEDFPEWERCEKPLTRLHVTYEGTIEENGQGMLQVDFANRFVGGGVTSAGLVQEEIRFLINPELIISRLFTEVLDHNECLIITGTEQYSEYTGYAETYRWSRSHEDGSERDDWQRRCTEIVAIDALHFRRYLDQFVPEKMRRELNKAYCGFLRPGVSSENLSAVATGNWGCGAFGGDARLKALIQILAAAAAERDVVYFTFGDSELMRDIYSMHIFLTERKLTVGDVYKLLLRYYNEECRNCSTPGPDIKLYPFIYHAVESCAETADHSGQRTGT
experimental protocol: PARG in vitro enzyme assay (TR-FRET)
Type: biochemical
condition description: read-out: PARG_EC50_ENZYME
Item-by-item account of log10 of EC50
assay metric: log10 of EC50 (log10 of the value in nM)

* Cc1nnc(-n2c(Cc3cnn(C)c3)nc3ccc(S(=O)(=O)NC4(C)CC4)cc32)s1 | 2.94
* CC(=O)n1c(=O)n(C)c2ccc(S(=O)(=O)NC3(C)CC3)cc21 | 3.45
* Cc1nnc(-n2c(CCN)nc3ccc(S(=O)(=O)NC4(C)CC4)cc32)s1 | 3.41
* Cn1c(=O)n(-c2ccco2)c2cc(S(=O)(=O)NC3(C)CC3)ccc21 | 3.71
* Cn1c(=O)n(-c2nnc(C(F)F)o2)c2cc(S(=O)(=O)NC3(C)CC3)c(F)cc21 | 2.97
* Cn1c(=O)n(Cc2ccccc2)c2ccc(S(=O)(=O)NC3(C)CC3)cc21 | 3.92
* NC(=O)Cn1c(=O)n(-c2nnc(C(F)F)s2)c2cc(S(=O)(=O)NC3(CF)CC3)c(F)cc21 | 2.22
* Cc1nnc(-n2cc(C(=O)C3CC3)c3ccc(S(=O)(=O)NC4(C)CC4)cc32)s1 | 2.34
